Test: Cytotoxicity against human HeLa cells assessed as inhibition of cell growth incubated for 72 hrs by CCK-8 assay
Type: toxicity, cell-based
Exercise: for every item that follows, state its recorded IC50 at 72 h.

Prompt: May I ask what IC50 at 72 h has been recorded for "C[C@H]1[C@H](C)CC[C@]2(C(=O)N3CCC[C@H]3C(=O)O)CC[C@]3(C)C(=CC[C@@H]4[C@@]5(C)CC[C@H](O)C(C)(C)[C@@H]5CC[C@]43C)[C@H]12" ?
Response: > 20 µM

Prompt: May I ask what IC50 at 72 h has been recorded for "C[C@H]1[C@H](C)CC[C@]2(C(=O)NCC(=O)N(C)CCO)CC[C@]3(C)C(=CC[C@@H]4[C@@]5(C)CC[C@H](O)C(C)(C)[C@@H]5CC[C@]43C)[C@H]12" ?
Response: > 20 µM

Prompt: May I ask what IC50 at 72 h has been recorded for "CNC(=O)CN(C)C(=O)[C@]12CC[C@@H](C)[C@H](C)[C@H]1C1=CC[C@@H]3[C@@]4(C)CC[C@H](O)C(C)(C)[C@@H]4CC[C@@]3(C)[C@]1(C)CC2" ?
Response: > 20 µM

---

Molecular target: Sentrin-specific protease 1 (Homo sapiens, UniProt Q9P0U3)
Sequence (Q9P0U3 whole entry, the tested form may be a part): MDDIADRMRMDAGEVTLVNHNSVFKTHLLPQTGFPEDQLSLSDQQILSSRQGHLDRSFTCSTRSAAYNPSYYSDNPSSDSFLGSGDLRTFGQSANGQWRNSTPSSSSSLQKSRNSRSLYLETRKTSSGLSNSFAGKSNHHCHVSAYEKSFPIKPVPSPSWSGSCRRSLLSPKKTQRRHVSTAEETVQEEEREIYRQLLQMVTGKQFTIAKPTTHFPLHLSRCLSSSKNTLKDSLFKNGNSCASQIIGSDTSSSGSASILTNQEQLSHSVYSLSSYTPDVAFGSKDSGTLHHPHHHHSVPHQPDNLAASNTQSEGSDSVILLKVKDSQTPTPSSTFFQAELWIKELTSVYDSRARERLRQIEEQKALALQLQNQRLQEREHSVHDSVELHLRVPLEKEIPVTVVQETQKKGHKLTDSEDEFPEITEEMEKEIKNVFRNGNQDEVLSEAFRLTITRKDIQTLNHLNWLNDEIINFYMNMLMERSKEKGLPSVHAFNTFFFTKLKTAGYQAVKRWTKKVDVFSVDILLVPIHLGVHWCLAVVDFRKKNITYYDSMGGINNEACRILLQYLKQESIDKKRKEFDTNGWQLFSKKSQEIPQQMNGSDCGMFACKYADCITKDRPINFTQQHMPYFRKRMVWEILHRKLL
Experiment: Inhibition of recombinant human SENP1 catalytic domain using RanGAP1 as substrate preincubated for 10 mins followed by substrate addition and measured after 30 mins by Western blot analysis
PROPERTY_LABEL: IC50

Prompt: Checklist item: IC50 tested on Sentrin-specific protease 1 (Homo sapiens, UniProt Q9P0U3), entry C[C@H]1[C@H](C)CC[C@]2(C(=O)O)CC[C@]3(C)C(=CC[C@@H]4[C@@]5(C)CC[C@H](O)C(C)(C)[C@@H]5CC[C@]43C)[C@H]12 [URSOLIC ACID] , value?
Response: 2580 nM

---

Assay: Cytotoxicity against human HeLa cells assessed as inhibition of cell growth incubated for 72 hrs by CCK-8 assay
Type: toxicity, cell-based
PROPERTY_LABEL: IC50 at 72 h

Prompt: May I ask what IC50 at 72 h has been recorded for "C[C@H]1[C@H](C)CC[C@]2(C(=O)OCC(=O)OC(C)(C)C)CC[C@]3(C)C(=CC[C@@H]4[C@@]5(C)CC[C@H](O)C(C)(C)[C@@H]5CC[C@]43C)[C@H]12" ?
Response: > 20 µM

Prompt: May I ask what IC50 at 72 h has been recorded for "C[C@H]1[C@H](C)CC[C@]2(C(N)=O)CC[C@]3(C)C(=CC[C@@H]4[C@@]5(C)CC[C@H](O)C(C)(C)[C@@H]5CC[C@]43C)[C@H]12" ?
Response: > 20 µM

Prompt: May I ask what IC50 at 72 h has been recorded for "COC(=O)[C@]12CC[C@@H](C)[C@H](C)[C@H]1C1=CC[C@@H]3[C@@]4(C)CC[C@H](OC(C)=O)C(C)(C)[C@@H]4CC[C@@]3(C)[C@]1(C)CC2" ?
Response: > 20 µM
